B1: Intersectin-1, residues 909 to 971; numbered along this chain, Q15811 (parent)
chain: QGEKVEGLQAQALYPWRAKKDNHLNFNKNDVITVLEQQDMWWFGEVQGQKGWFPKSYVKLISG

# Variants of: B1
# protocol: abundance fitness (aPCA) (normalised: wild type 0, dead -1); higher = more abundant; growth selection in yeast, the domain comes from the species named
# condition-context: Homo sapiens
Binary call on abundance fitness: 1 from -0.1 upward, 0 beneath that.

[
  {
    "variant-description": "K28R",
    "assigned-label": 0
  },
  {
    "variant-description": "K59Y",
    "assigned-label": 0
  },
  {
    "variant-description": "N29C",
    "assigned-label": 0
  },
  {
    "variant-description": "D30T",
    "assigned-label": 0
  },
  {
    "variant-description": "T33S",
    "assigned-label": 0
  },
  {
    "variant-description": "L35G",
    "assigned-label": 1
  },
  {
    "variant-description": "Q11L",
    "assigned-label": 0
  },
  {
    "variant-description": "E6C",
    "assigned-label": 0
  },
  {
    "variant-description": "W41I",
    "assigned-label": 0
  },
  {
    "variant-description": "K20D",
    "assigned-label": 1
  },
  {
    "variant-description": "T33D",
    "assigned-label": 1
  },
  {
    "variant-description": "L60Q",
    "assigned-label": 1
  },
  {
    "variant-description": "K4E",
    "assigned-label": 0
  },
  {
    "variant-description": "P15N",
    "assigned-label": 1
  },
  {
    "variant-description": "G63T",
    "assigned-label": 1
  },
  {
    "variant-description": "F53H",
    "assigned-label": 0
  },
  {
    "variant-description": "E3T",
    "assigned-label": 0
  },
  {
    "variant-description": "N27Q",
    "assigned-label": 0
  },
  {
    "variant-description": "V58W",
    "assigned-label": 0
  },
  {
    "variant-description": "V5I",
    "assigned-label": 0
  },
  {
    "variant-description": "K4H",
    "assigned-label": 0
  },
  {
    "variant-description": "E45T",
    "assigned-label": 1
  },
  {
    "variant-description": "L24S",
    "assigned-label": 0
  },
  {
    "variant-description": "F53K",
    "assigned-label": 0
  },
  {
    "variant-description": "H23F",
    "assigned-label": 0
  },
  {
    "variant-description": "Q38G",
    "assigned-label": 1
  },
  {
    "variant-description": "G48Y",
    "assigned-label": 1
  },
  {
    "variant-description": "G7Q",
    "assigned-label": 1
  },
  {
    "variant-description": "K55L",
    "assigned-label": 0
  },
  {
    "variant-description": "R17E",
    "assigned-label": 1
  },
  {
    "variant-description": "N29D",
    "assigned-label": 1
  },
  {
    "variant-description": "G51M",
    "assigned-label": 0
  },
  {
    "variant-description": "Q38W",
    "assigned-label": 0
  },
  {
    "variant-description": "N29R",
    "assigned-label": 0
  },
  {
    "variant-description": "D39G",
    "assigned-label": 1
  },
  {
    "variant-description": "V46W",
    "assigned-label": 1
  },
  {
    "variant-description": "D30S",
    "assigned-label": 0
  },
  {
    "variant-description": "W16Q",
    "assigned-label": 0
  },
  {
    "variant-description": "L60T",
    "assigned-label": 0
  },
  {
    "variant-description": "L8V",
    "assigned-label": 1
  }
]

Every entry's value here was drawn from the Human Domainome abundance scans (Beltran et al. 2025).
